target: Luciferin 4-monooxygenase (Photinus pyralis) (UniProt P08659); assay: firefly luciferase enzyme inhibitors, primary screen, biochemical, luminescence, purified enzyme, 2006 set (AID 1141); settings: SteadyGlo luminescence, 30 min, higher = more signal, called active from +8 up or from −8 down;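 also: cell-free assay with purified firefly luciferase at 100 ng per well in PBS; test concentration not given here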
Sequence (P08659 whole entry, looked up): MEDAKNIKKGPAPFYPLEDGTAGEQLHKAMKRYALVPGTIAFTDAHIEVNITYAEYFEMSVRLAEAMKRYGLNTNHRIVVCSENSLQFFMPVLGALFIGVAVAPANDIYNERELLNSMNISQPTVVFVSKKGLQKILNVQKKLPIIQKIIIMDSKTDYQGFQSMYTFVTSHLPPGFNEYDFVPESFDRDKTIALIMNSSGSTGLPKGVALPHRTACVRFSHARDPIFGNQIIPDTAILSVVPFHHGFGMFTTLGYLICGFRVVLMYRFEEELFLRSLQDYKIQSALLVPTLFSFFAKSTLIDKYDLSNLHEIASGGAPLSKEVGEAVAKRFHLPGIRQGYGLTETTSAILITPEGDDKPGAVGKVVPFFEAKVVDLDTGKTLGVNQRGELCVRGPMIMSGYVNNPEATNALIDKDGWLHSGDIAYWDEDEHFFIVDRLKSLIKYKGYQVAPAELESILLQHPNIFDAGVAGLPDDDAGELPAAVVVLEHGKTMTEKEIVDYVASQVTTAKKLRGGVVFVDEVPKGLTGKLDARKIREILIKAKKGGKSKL
Mark Satisfied for reported z-score of -0.004 or greater; mark Not satisfied for anything smaller.

COMPOUND | CLASS ASSIGNMENT
O=C1CCCC=C1C(O)CCOC(c1ccccc1)(c1ccccc1)c1ccccc1 (stereo unspecified) | Not satisfied
CO[C@H]1COC(=O)CC=C[C@H](C)[C@@H](OC)COC(=O)[C@@H](C)NC(=O)CC=C[C@@H]1C | Satisfied
O=C1CCCC=C1C(CCc1ccccc1)OC(=O)c1ccc(Br)cc1 (stereo unspecified) | Satisfied
COc1cccc([C@H]2Oc3ccc(OC)cc3C(=NOC(C)CN3CCCCc4nc(C)c(C)cc43)[C@@H]2O)c1 (stereo partly specified) | Not satisfied
O=C1C2=CC[C@H]3C(=O)N(c4cccc(Oc5ccccc5)c4)C(=O)[C@H]3[C@H]2[C@H](O)[C@@H]2O[C@H]12 | Not satisfied
COC(=O)CC=C[C@@H](C)[C@@H](C=NO[C@@H]1O[C@H](COC(C)=O)[C@@H](OC(C)=O)[C@H](OC(C)=O)[C@H]1OC(C)=O)NS(=O)(=O)c1ccc(C)cc1 | Satisfied
O=C1C=C[C@@H](O)[C@@H]2[C@@H]3C(=O)N(c4ccc(F)cc4F)C(=O)[C@@H]3CC[C@@H]12 | Not satisfied
CCc1cc2c(nc1CC)CCN(CCC(C)=NOC[C@H]1O[C@H](c3ccccc3)C=C[C@@H]1Oc1ccc(OC)cc1)C2 | Satisfied
CCN1C(=O)[C@H]2[C@H]3[C@H](O)[C@H](O)CC(=NOCC(C)C)[C@@H]3CC[C@H]2C1=O | Satisfied
COc1cc(O)c(C(=O)C=Cc2ccc3c(c2)OCO3)c(OC)c1 | Not satisfied
CCOC(=O)[C@H](CC(C)C)NC(=O)CCC1CC(OC(=O)NCc2cccc3ccccc23)CC2(CCCC(COC(=O)NCCC(C)C)O2)O1 (stereo partly specified) | Satisfied
CCOC(=O)[C@H](CC(C)C)NC(=O)CCC1CC(OC(=O)NCc2ccc3c(c2)OCO3)CC2(CCCC(COC(=O)NCC(c3ccccc3)c3ccccc3)O2)O1 (stereo partly specified) | Satisfied
COC(=O)C1=C(C)N(Cc2ccccc2)[C@]23O[C@](C(=O)OC)(C(=O)N2[C@@H]1c1ccccc1)C(C(=O)OC)=C3C(=O)OC | Not satisfied
CC(C)(C)N1C(=O)[C@H]2[C@H]3[C@H](O)[C@H](O)CC(=O)[C@H]3CC[C@H]2C1=O | Satisfied
CO[C@H](C1CCCCC1)[C@H](C)C=CCC(=O)OCCCc1ccccc1 | Not satisfied
COc1cccc([C@@H]2Oc3ccc(OC)cc3C(=O)[C@H]2O)c1 | Not satisfied

----------
target: Follistatin (Homo sapiens); assay: follistatin binders on small-molecule microarrays, primary screen, biochemical, small-molecule microarray, 635/667 nm fluorescence (AID 1132); conditions: FST binding, 635 nm fluorescence, higher = more signal

MOLECULE | TEST TARGET | composite z-score
CO[C@H]1COC(=O)CC=C[C@@H](C)[C@H](OC)COC(=O)[C@@H]2CCCN2C(=O)CC=C[C@@H]1C | Follistatin (Homo sapiens) | 1.39
CO[C@H]1COC(=O)CC=C[C@H](C)[C@@H](OC)COC(=O)[C@@H](C)NC(=O)CC=C[C@@H]1C | Follistatin (Homo sapiens) | 1.45
CC[C@@H](c1ccccc1)n1c(=O)n2n(c1=O)[C@H]1[C@H](O)[C@@H]3O[C@@H]3C(=O)[C@H]1CC2 | Follistatin (Homo sapiens) | 0.295
CCOC(=O)NN=C1C[C@@H](O)[C@@H](O)[C@@H]2[C@@H]3C(=O)N(c4ccc(F)cc4F)C(=O)[C@@H]3CC[C@@H]12 | Follistatin (Homo sapiens) | 0.519
CCOC(=O)[C@H](CC(C)C)NC(=O)CCC1CC(OC(=O)NCc2cccc3ccccc23)CC2(CCCC(COC(=O)NCC3CCCCC3)O2)O1 (some centres not stated) | Follistatin (Homo sapiens) | 0.62
CC(C)CCN1CCc2nc(COc3ccccc3)c3c(c2C1)CO[C@@H](C)C3 | Follistatin (Homo sapiens) | 0.0413
COc1ccc(COC(=O)NN=C2C[C@@H](O)[C@@H](O)[C@@H]3[C@@H]4C(=O)N(Cc5ccccc5)C(=O)[C@@H]4CC[C@H]23)cc1 | Follistatin (Homo sapiens) | -0.311

----------
tested on: Inhibin beta A chain (activin A); test: INHBA (activin A) binders on microarrays, primary screen, biochemical, small-molecule microarray, 635 nm fluorescence scan (AID 1107); settings: small-molecule microarray binding, higher = more signal;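 also: mouse activin A protein probed at 4.33 µg/mL on printed slides; score merges bound-protein fluorescence near 667 nm with spot signal-to-noise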
READOUT NAME: composite z-score

MOLECULE | READOUT NAME | EXPERIMENTAL VALUE
C[C@@H](ON=C1[C@H]2CCn3c(=O)n(-c4ccccc4)c(=O)n3[C@H]2[C@H](O)[C@@H]2O[C@H]12)c1cn([C@@H]2COC[C@H]2O)nn1 | composite z-score | 0.0788
CCOC(=O)[C@H](CC(C)C)NC(=O)CCC1CC(OC(=O)NCc2ccc3c(c2)OCO3)CC2(CCCC(COC(=O)NCC(c3ccccc3)c3ccccc3)O2)O1 (some centres not stated) | composite z-score | 0.155
O=C1C[C@@H](O)[C@@H](O)[C@@H]2[C@@H]3C(=O)N(Cc4ccc5c(c4)OCO5)C(=O)[C@@H]3CC[C@H]12 | composite z-score | 0.128
COC(=O)CC=C[C@@H](C)[C@@H](C=NO[C@H](C)c1cn([C@@H]2COC[C@H]2O)nn1)NS(=O)(=O)c1ccc(C)cc1 | composite z-score | 0.216
CC(CCN1CCCc2nc(C)c(C)cc21)=NOC(C)CN1CCCCc2nc(C)c(C)cc21 (configuration not stated) | composite z-score | 1.43
CCCCC#C[C@@H]1C=C[C@H](Oc2cc(OC)c(OC)c(OC)c2)[C@@H](COC(=O)OCC)O1 | composite z-score | 0.444
O=C1C[C@@H](O)[C@@H](O)[C@@H]2[C@@H]3C(=O)N(C[C@@H]4CCCO4)C(=O)[C@@H]3CC[C@@H]12 | composite z-score | -0.0076

----------
# z-score per entry
assay: adipocyte viability effects, profiling panel, cell-based, 3T3-L1 adipocytes, calcein-AM fluorescence, 48 h, basal (AID 1163); conditions: 3T3-L1 adipocytes viability, higher = more signal; also: test concentration not given here

MOLECULE | z-score
C#CCCCON=C1C[C@@H](O)[C@@H](O)[C@@H]2[C@@H]3C(=O)N(C(C)(C)C)C(=O)[C@@H]3CC[C@@H]12 | -0.619
O=C1C[C@@H](O)[C@@H](O)[C@@H]2[C@@H]3C(=O)N(C[C@@H]4CCCO4)C(=O)[C@@H]3CC[C@H]12 | -0.42
CCCCC#C[C@@H]1C=C[C@H](OC(C)=O)[C@@H](COC(C)=O)O1 | -0.515
CC(C)(C)N1C(=O)[C@H]2[C@H]3[C@H](O)[C@H](O)CC(=O)[C@@H]3CC[C@H]2C1=O | 0.436
CC(C)CON=C1C[C@@H](O)[C@@H](O)[C@@H]2[C@@H]3C(=O)N(c4ccc(F)cc4F)C(=O)[C@@H]3CC[C@H]12 | -0.934
CCOC(=O)NN=C1C[C@@H](O)[C@@H](O)[C@@H]2[C@@H]3C(=O)N(c4ccc(F)cc4F)C(=O)[C@@H]3CC[C@@H]12 | -0.384
CCOC(=O)CCN1C(=O)[C@H]2[C@H]3[C@H](O)[C@H](O)CC(=NNC(=O)OCc4ccccc4)[C@@H]3CC[C@H]2C1=O | 0.902
CC(C)=CCCC(C)=CCON=C1C[C@@H](O)[C@@H](O)[C@@H]2[C@@H]3C(=O)N(C4CCCCC4)C(=O)[C@@H]3CC[C@@H]12 | -0.345
CCC=CCCC(OC(=O)c1ccc(Br)cc1)C1=CCCCC1=O (centres undefined) | -0.648
COC(=O)[C@H](C)NC(=O)CCC1CC(OC(=O)NCCc2ccc(F)cc2)CC2(CCCC(COC(=O)NCc3cccc(C(F)(F)F)c3)O2)O1 (some centres undefined) | 0.704
CO[C@H]1COC(=O)[C@H](C)NC(=O)[C@@H](C)COC(=O)[C@H]2CCCN2C(=O)CC=C[C@H]1C | -0.321
COC(=O)[C@@H]1CC[C@H](C)[C@@H](c2ccc(C)cc2)N1C(=O)c1ccc(C=NO[C@@H](C)c2cn([C@H](CO)Cc3ccccc3)nn2)cc1 | -0.412
Cc1ccc(S(=O)(=O)n2c3ccccc3c3nnc(C(=O)c4ccccc4)nc32)cc1 | 0.294
COc1ccc(O[C@H]2C=C[C@@H](c3ccccc3)O[C@@H]2CON=C2[C@H]3CCn4c(=O)n(-c5ccccc5)c(=O)n4[C@H]3[C@H](O)[C@@H]3O[C@H]23)cc1 | -0.669
CCOC(=O)[C@H](CC(C)C)NC(=O)CCC1CC(OC(=O)NCCc2ccc(F)cc2)CC2(CCCC(COC(=O)NCCc3ccccc3OC)O2)O1 (some centres undefined) | -0.227
C#CCCCON=C1C[C@@H](O)[C@@H](O)[C@@H]2[C@@H]3C(=O)N(CCC(=O)OCC)C(=O)[C@@H]3CC[C@H]12 | 0.73
C[C@H]1CC[C@H]2C(=O)O[C@H](COc3ccc(C(C)(C)C)cc3)CN2[C@@H]1c1ccc(Br)cc1 | 0.356
O=C1[C@H]2[C@H]3[C@H](O)[C@H](O)CC(=NOCc4ccccc4)[C@@H]3CC[C@H]2C(=O)N1c1ccc(F)cc1F | -0.23
CCN1C(=O)[C@@H]2[C@H]3C(=CC[C@@H]2C1=O)C1(OCCCO1)[C@H]1O[C@H]1[C@H]3O | -1.03
CCOC(=O)[C@H](Cc1ccccc1)NC(=O)OC1CC(CCC2CC(CC)=NO2)OC2(CCCC(COC(=O)NCCC(C)C)O2)C1 (some centres undefined) | -1.14
CC(C)=CCCC(C)=CCON=C1C[C@@H](O)[C@@H](O)[C@@H]2[C@@H]3C(=O)N(Cc4ccccc4)C(=O)[C@@H]3CC[C@@H]12 | -0.827
CC[C@@H](c1ccccc1)n1c(=O)n2n(c1=O)[C@H]1[C@H](O)[C@@H]3O[C@@H]3C(=O)[C@H]1CC2 | 1.16
COC(=O)CC=C[C@@H](C)[C@@H](C=NOCC[C@@H]1C=C[C@H](OC(C)=O)[C@@H](COC(C)=O)O1)NS(=O)(=O)c1ccc(C)cc1 | 0.037
COC(=O)CC=C[C@@H](C)[C@@H](C=NO[C@@H](C)c1cc(-c2c(C)cc(C)cc2C)no1)NS(=O)(=O)c1ccc(C)cc1 | 0.885
O=C1[C@H]2[C@H]3[C@H](O)[C@H](O)CC(=NOC[C@@H](O)COCc4ccco4)[C@H]3CC[C@H]2C(=O)N1Cc1ccccc1 | 0.194
O=C1CCCC=C1C(O)CCOC(c1ccccc1)(c1ccccc1)c1ccccc1 (centres undefined) | -0.268
COC(=O)[C@@H]1CC[C@H](C)[C@@H](c2ccc(C)cc2)N1C(=O)c1ccc(C=NO[C@H](C)c2cn([C@H](CO)Cc3ccccc3)nn2)cc1 | 0.747
O=C1[C@H]2[C@H]3[C@H](O)[C@H](O)CC(=NOC[C@@H](O)COCc4ccco4)[C@H]3CC[C@H]2C(=O)N1c1ccc(F)cc1F | 1.06
Cc1cc2c(nc1C)CCCCN2CC(C)ON=C[C@@H](C)[C@H](OCc1ccccc1)C(C)C (some centres undefined) | -0.44
